Data provenance is PubChem BioAssay (NCI).

Recorded TGI, one value per entry.
tested on: 786-0 renal; experiment: NCI tumour cell line growth inhibition, 48 h

compound: CC(=O)OCOC(=O)CN(CC(=O)OCOC(C)=O)Cc1cc2c(cc1OC(C)=O)Oc1cc(OC(C)=O)c(CN(CC(=O)OCOC(C)=O)CC(=O)OCOC(C)=O)cc1C21OC(=O)c2ccccc21
target.desc: 786-0 renal
TGI: 1.41 µM

compound: O=C1c2cccnc2C(=O)c2nc3cc(N4CCN(C5CC5)CC4)ccc3nc21
target.desc: 786-0 renal
TGI: 4 µM

compound: O=C1[C@H]2ON(c3ccccc3)C(c3ccccc3Cl)[C@H]2C(=O)N1c1ccc(Cc2ccc(N3C(=O)[C@@H]4ON(c5ccccc5)C(c5ccccc5Cl)[C@@H]4C3=O)cc2)cc1 (stereo partly drawn)
target.desc: 786-0 renal
TGI: > 100 µM

compound: COc1ccc(-c2n/c(=C\c3c(O)[nH]c4ccc(OC)cc34)cc3c2=Nc2ccccc2-3)cc1
target.desc: 786-0 renal
TGI: 3.37 µM

compound: CC1=Nc2ccccc2S/C1=C(/C)NNC(=O)C(N)=O
target.desc: 786-0 renal
TGI: > 100 µM

compound: O=C(CCCN1CCC2(CC1)OC(=O)N(c1ccccc1)C2=O)c1ccccc1
target.desc: 786-0 renal
TGI: > 100 µM

compound: CCCC(C)c1cc(Cc2cc(Cl)cc(Cl)c2O)c(O)c(Cc2cc(Cl)cc(Cl)c2O)c1 (stereo not drawn)
target.desc: 786-0 renal
TGI: 6.78 µM

compound: CCOc1ccc(NC(=O)C(=O)CC(=O)C2=C(C)Nc3ccccc3S2)cc1
target.desc: 786-0 renal
TGI: > 50 µM

compound: CCOC(CN=C=S)OCC
target.desc: 786-0 renal
TGI: > 10 µM

compound: O=C(CSc1nnc(-c2ccc(N=Cc3ccc(Cl)cc3)cc2)o1)Nc1ccc(Cl)cc1Cl
target.desc: 786-0 renal
TGI: 51.8 µM

compound: Cc1nc2cccc(F)c2c(=O)n1C1CCCCNC1=O (stereo not drawn)
target.desc: 786-0 renal
TGI: > 10 µM

compound: COc1ccc(-c2csc(N(C(=O)N3CCN(c4cc5c(cc4F)c(=O)c(C(=O)O)cn5C4CC4)CC3)c3ccccc3)n2)cc1
target.desc: 786-0 renal
TGI: > 66 µM

compound: CC1(C)C(=NNC(=O)C[N+](C)(C)C)C(C)(C)C1=NNC(=O)C[N+](C)(C)C
target.desc: 786-0 renal
TGI: > 100 µM

compound: O=S(=O)(O)c1ccc2cccc(N=Nc3c(O)ccc4ccccc34)c2c1
target.desc: 786-0 renal
TGI: > 100 µM

compound: O=[N+]([O-])c1ccc(-c2csc3nc(-c4ccccc4)nn23)cc1
target.desc: 786-0 renal
TGI: > 100 µM

compound: CC1OC(O[C@@H]2OC=C(C=O)[C@@]3(O)CC[C@H](C)[C@@H]23)C(O)C(O)C1O (stereo partly drawn)
target.desc: 786-0 renal
TGI: > 100 µM

compound: O=[N+]([O-])c1ccc(-c2nnc(C34CC5CC(CC(C5)C3)C4)o2)cc1
target.desc: 786-0 renal
TGI: > 100 µM

compound: CC(CCC(=O)O)[C@H]1CCC2[C@@H]3CC[C@@H]4CC(O)CC[C@]4(C)C3CC[C@@]21C (stereo partly drawn)
target.desc: 786-0 renal
TGI: > 100 µM
